target: Nonstructural protein 1 (Influenza A virus, UniProt Q194T2); assay type: functional, Influenza A virus (A/California/07/2009(H1N1))
Sequence (Q194T2 whole entry): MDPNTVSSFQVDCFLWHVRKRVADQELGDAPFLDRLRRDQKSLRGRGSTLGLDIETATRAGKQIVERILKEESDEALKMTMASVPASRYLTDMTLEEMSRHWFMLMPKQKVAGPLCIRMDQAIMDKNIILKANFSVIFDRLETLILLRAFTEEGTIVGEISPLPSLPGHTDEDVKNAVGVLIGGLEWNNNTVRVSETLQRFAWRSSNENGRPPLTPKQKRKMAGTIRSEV
Active and inactive are the calls of the source.

# structure, IC50
measured = [
    ("Cc1ccc(S(=O)(=O)NC2=CC(=Nc3ccc(O)cc3)C(=O)c3ccccc32)cc1", "7.33 µM (active)"),
    ("C=CCc1c(C)nc(C)nc1N/N=C/c1ccccc1O", "18.4 µM (active)"),
    ("CCN(Cc1ccccc1)c1ccc(N=Nc2nn(C)c(C)c2[N+](=O)[O-])cc1", "9.29 µM (active)"),
    ("Cc1ccc(N2CCN(c3ccc(NCc4nc5ccccc5n4C)cc3)CC2)cc1", "75.6 µM (active)"),
    ("O=C(CN1C(=O)c2cccc3cccc(c23)C1=O)N1CCN(Cc2ccc3c(c2)OCO3)CC1", "> 100 µM (active)"),
]

====

Here the recorded EC50 is given for each entry.
Target: Endoribonuclease toxin MazF (Escherichia coli K-12, UniProt P0AE70)
Sequence (P0AE70 whole entry): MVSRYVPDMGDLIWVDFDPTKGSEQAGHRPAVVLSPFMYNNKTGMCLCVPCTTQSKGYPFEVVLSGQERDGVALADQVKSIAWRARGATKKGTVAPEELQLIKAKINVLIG
Assay: fluorescent RNA oligo signal without MazF, dose response, counter-screen for MazEF activator project, biochemical, fluorescence, single-stranded RNase substrate (AID 588502)
Assay type: functional
Active and inactive are the calls of the source.
readout_kind: EC50

# structure, measured_on, test_result
data = [
    ("COc1ccc(CNC(=O)c2cc3c(=O)n4ccccc4nc3n(Cc3cccnc3)c2=N)cc1", "Endoribonuclease toxin MazF (Escherichia coli K-12, UniProt P0AE70)", "47.3 µM (inactive)"),
    ("COCCCn1c(=O)/c(=C/c2ccccc2OC(F)F)s/c1=C(\\C#N)C(=O)NCCOC", "Endoribonuclease toxin MazF (Escherichia coli K-12, UniProt P0AE70)", "> 99 µM (inactive)"),
    ("CCn1c(C)cc(C=C2C(=O)c3ccccc3C2=O)c1C", "Endoribonuclease toxin MazF (Escherichia coli K-12, UniProt P0AE70)", "62.8 µM (inactive)"),
    ("Cc1ccc(OCC(=O)Nc2ccc(Cl)cc2)c(-n2nc3ccccc3n2)c1", "Endoribonuclease toxin MazF (Escherichia coli K-12, UniProt P0AE70)", "> 99 µM (inactive)"),
    ("CCN(CCNc1ccc([N+](=O)[O-])c2cccnc12)S(=O)(=O)c1ccccc1", "Endoribonuclease toxin MazF (Escherichia coli K-12, UniProt P0AE70)", "> 99 µM (inactive)"),
    ("O=C1C([N-]S(=O)(=O)c2cccs2)=C([n+]2cccc(Cc3ccccc3)c2)C(=O)c2ccccc21", "Endoribonuclease toxin MazF (Escherichia coli K-12, UniProt P0AE70)", "36.5 µM (inactive)"),
    ("O=C1/C(=C/Nc2ccc(O)cc2)c2ccccc2C(=O)N1Cc1ccccc1", "Endoribonuclease toxin MazF (Escherichia coli K-12, UniProt P0AE70)", "44.3 µM (inactive)"),
]

====

assay: Vero E6 cell cytotoxicity, dose response, cytotoxicity control for non-replicating M. tuberculosis project, secondary assay (AID 492998); format: functional, VeroE6; details: Vero C1008
Calls of active or inactive are those of the source.
Each entry below lists one item and its recorded CC50 value.

# structure, CC50
records = [
    ("O=C(c1ccc(-c2ccc([N+](=O)[O-])cc2)o1)N1CCCCCCC1", "9.37 µM (active)"),
    ("Cc1nc(N/C(N)=N/C(=O)NC2CCCCC2)nc2ccccc12", "13.3 µM (active)"),
    ("C/C(=N/NC(=O)c1cc2ccccc2cc1O)C1C(=O)c2ccccc2C1=O", "16.7 µM (active)"),
    ("Cn1cnc([N+](=O)[O-])c1Sc1ccc(Br)cc1", "> 20 µM (active)"),
]

Origin of values: ChEMBL document CHEMBL1201862
